- assaySetup: 298.15 K; 101 kPa; Liquid
recordedEndpoint: mass density (kg/m3)

compound: C1CCCC1
mass density (kg/m3): 739.55

compound: CCC(C)O (stereo not given)
mass density (kg/m3): 802.72

compound: C1CCCCC1
mass density (kg/m3): 773.92

compound: CCCC(C)O (stereo not given)
mass density (kg/m3): 805.01

compound: CC(C)O
mass density (kg/m3): 780.87

###

- assaySetup: 293.15 K; 101 kPa; Liquid
recordedEndpoint: speed of sound (m/s)

molecule: CCCC(C)O (stereo not given)
unitOfMeasurement: m/s
speed of sound: 1250
//
molecule: CCC(C)O (stereo not given)
unitOfMeasurement: m/s
speed of sound: 1230
//
molecule: CC(C)O
unitOfMeasurement: m/s
speed of sound: 1156
//
molecule: C1CCCC1
unitOfMeasurement: m/s
speed of sound: 1232
//
molecule: C1CCCCC1
unitOfMeasurement: m/s
speed of sound: 1279

###

- assaySetup: 303.15 K; 101 kPa; Liquid
recordedEndpoint: speed of sound (m/s)

compound: C1CCCC1 [cyclopentane]
val: 1180
--
compound: CC(C)O [propan-2-ol]
val: 1121
--
compound: CCC(C)O (stereo not given) [butan-2-ol]
val: 1194
--
compound: CCCC(C)O (stereo not given) [pentan-2-ol]
val: 1214
--
compound: C1CCCCC1 [cyclohexane]
val: 1230

###

- assaySetup: 293.15 K; 101 kPa; Liquid
recordedEndpoint: viscosity (mPa·s)

compound: CCC(C)O (centres undefined)
viscosity [mPa·s]: 3.623

a. C1CCCCC1
b. CCCC(C)O (centres undefined)
c. CC(C)O
Please list these compounds in decreasing order of viscosity. Order the labels as requested and list them.
b, c, a

###

- assaySetup: 293.15 K; 101 kPa; Liquid
recordedEndpoint: mass density (kg/m3)

compound: CC(C)O
unitOfMeasurement: kg/m3
mass density: 785.07

compound: C1CCCCC1
unitOfMeasurement: kg/m3
mass density: 778.62

compound: CCC(C)O (stereo not given)
unitOfMeasurement: kg/m3
mass density: 806.84

compound: C1CCCC1
unitOfMeasurement: kg/m3
mass density: 744.52

compound: CCCC(C)O (stereo not given)
unitOfMeasurement: kg/m3
mass density: 809.04

###

- assaySetup: 298.15 K; 101 kPa; Liquid
recordedEndpoint: viscosity (mPa·s)

compound: C1CCCC1
recordedEndpoint: viscosity
val: 0.416

P. CCCC(C)O (stereo not given)
Q. C1CCCCC1
Sort P and Q by viscosity descending and give the first. Please reply using the label of the selected record.
P

P. CCC(C)O (stereo not given)
Q. CC(C)O
Would you let me know which has the greater viscosity value, P or Q ? Selection: enter the item's label.
P
(P: 2.995 mPa·s, Q: 2.045 mPa·s)

###

- assaySetup: 303.15 K; 101 kPa; Liquid
recordedEndpoint: viscosity (mPa·s)

1. C1CCCC1
2. C1CCCCC1
Which has the higher viscosity, 1 or 2 ? Response format: the label of the selected entry.
2
(2: 0.816 mPa·s, 1: 0.394 mPa·s)

###

- assaySetup: 303.15 K; 101 kPa; Liquid
recordedEndpoint: viscosity (mPa·s)

compound: CCCC(C)O (stereo not drawn) [pentan-2-ol]
viscosity, mPa·s: 2.774
//
compound: CC(C)O [propan-2-ol]
viscosity, mPa·s: 1.763
//
compound: CCC(C)O (stereo not drawn) [butan-2-ol]
viscosity, mPa·s: 2.493
